# assayTarget: T1, wild type (WT) GPIIb/IIIa ectodomain (heterodimer of SEQ ID NOs: 1 and 3) (human, UniProt P08514 32-993; P05106 27-716)
# T1 construct: Recombinant purified ectodomain; also called GP2b3a; integrin αIIbβ3
# assayProcedure: apparent monovalent affinity for GP2b3a (SEQ ID: 1 and 3); BLI or SPR, the method of each row is not given
Exercise: state measured pKd for each of the binders provided.
API: returns pKd as number; meaning -log10 of concentration in mol/L.

q: Annotate the binder BIIB-4-209 (Fab, V domains shown, Tested as Fab made from yeast-expressed, protein A-purified antibody; Only VH and VL are tied to the clone) VH: QVQLVQSGAEVKKPGASVKVSCKASGYTFTSYGISWVRQAPGQGLEWMGWISAYNGNTNYAQKLQGRVTMTTDTSTSTAYMELRSLRSDDTAVYYCARGRPYDHYFDYWGQGTLVTVSS VL: EIVLTQSPATLSLSPGERATLSCRASQSVSSYLAWYQQKPGQAPRLLIYDASNRATGIPARFSGSGSGTDFTLTISSLEPEDFAVYYCQQAYNYPFTFGGGTKVEIK with its measured pKd.
a: 7.01

q: # return recorded pKd for input BIIB-4-318 (Fab, V domains shown, Tested as Fab made from yeast-expressed, protein A-purified antibody; Only VH and VL are tied to the clone) VH: QVQLQESGPGLVKPSETLSLTCAVSGYSISSGYYWGWIRQPPGKGLEWIGSIYHSGSTNYNPSLKSRVTISVDTSKNQFSLKLSSVTAADTAVYYCARSPRWRSTYANWFNPWGQGTLVTVSS VL: DIQLTQSPSSVSASVGDRVTITCRASQGISSWLAWYQQKPGKAPKLLIYGASSLQSGVPSRFSGSGSGTDFTLTISSLQPEDFATYYCQQAAPFPLTFGGGTKVEIK
a: 8.52
